target: D(1A) dopamine receptor (Homo sapiens); test: HTS Assay for Allosteric Agonists of the Human D1 Dopamine Receptor: Primary Screen for Antagonists (AID 488983); details: D1 receptor cell assay, antagonist mode, qHTS titration; series mostly up to 41.8 µM;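 also: calcium flux response to an EC80 dopamine challenge measured with no-wash dye; nearly all actives have a fitted effect of over 65% in size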
Inconclusive results are not listed. Activity calls are given as the source filed them. Calls follow the shape of the dose curve; as a rule, active = well fitted inhibition curve with a large enough effect; inconclusive = small, poorly fitted or top-dose-only effect, or effect the other way; inactive = flat fitted curve, though single readings scatter.
Possible outcomes: 1 (active), -1 (inactive)

1) CC(=O)c1c(O)c(C)c(O)c(Cc2c(O)c3c(c(C(=O)/C=C/c4ccccc4)c2O)OC(C)(C)C=C3)c1O : -1
2) COc1ccc2c(c1)[C@@]13CCCC[C@H]1[C@@H](C2)NCC3 : -1
3) CCCCCCC(C)(C)c1ccc([C@@H]2C[C@H](O)CC[C@H]2CCCO)c(O)c1 : -1
4) C[N+](C)(C)CC#CCN1CCCC1=O : -1
5) CCCN(CCC)[C@H]1CCc2c(F)ccc(O)c2C1 : -1
6) Oc1ccc2c3c1O[C@H]1c4[nH]c5ccccc5c4C[C@@]4(O)C(C2)N(CC2CC2)CCC314 (stereo not given in full) : -1
7) N[C@@H](Cn1oc(=O)[nH]c1=O)C(=O)O : -1
8) Clc1cc(I)cc(Cl)c1NC1=NCCN1 : -1
9) CCCN1CCC[C@@H](c2cccc(O)c2)C1 : 1
10) CC12NC(Cc3ccccc31)c1ccccc12 (stereo not given) : -1
11) CC(C)(C)c1o[nH]c(=O)c1CC(N)C(=O)O (stereo not given) : -1
12) COc1ccc(OC)c(C(O)C(C)N)c1 (stereo not given) : -1
13) CN1CCc2cc(O)cc3c2[C@H]1Cc1ccc(O)c(O)c1-3 : 1
14) CC(N)c1cccc(Cl)c1Cl (stereo not given) : -1
15) C/C(O)=C(\C#N)C(=O)Nc1cc(Br)ccc1Br : -1
16) O=C1CC[C@@]2(O)C3Cc4ccc(O)c5c4C2(CCN3CC2CC2)[C@H]1O5 (stereo not given in full) : -1
17) N#C/C(=C/c1ccc(O)c(O)c1)C(N)=S : -1
18) CO[C@H]1CC=C2CCN3CCC4=C(CC(=O)OC4)[C@]23C1 : -1
19) c1ccc2cc(CC3=NCCN3)ccc2c1 : -1
20) OC1CCCCC1N1CCC(c2ccccc2)CC1 (stereo not given) : -1
21) CC(C)[C@@]1(NC(=O)[C@@H]2C[C@@H]3c4cccc5[nH]cc(c45)C[C@H]3N(C)C2)O[C@@]2(O)[C@@H]3CCCN3C(=O)[C@H](Cc3ccccc3)N2C1=O : 1
22) C[N+]1(C)CCc2cc3c(cc2[C@H]1[C@@H]1OC(=O)c2c1ccc1c2OCO1)OCO3 : -1
23) COc1ccc2[nH]cc(CCN)c2c1 : -1
24) C[N+](C)(C)CC#CCOC(=O)Nc1cccc(Cl)c1 : -1
25) C=CCN1CCC23c4c5ccc(O)c4O[C@H]2C(=O)CC[C@@]3(O)C1C5 (stereo not given in full) : -1
26) C[C@H](Cc1ccc2c(c1)OC(C(=O)O)(C(=O)O)O2)NC[C@H](O)c1cccc(Cl)c1 : -1
27) C[N+]1(C)C2CCC1CC(OC(=O)c1c[nH]c3ccccc13)C2 (stereo not given) : -1
28) CP(=O)(O)C1=CCNCC1 : -1
29) C=CCN(C1=NCCN1)c1c(Cl)cccc1Cl : -1
30) NC(C(=O)O)c1cc(=O)[nH]o1 (stereo not given) : -1
31) CCCN(CCC)CCc1c[nH]c2ccc(C(N)=O)cc12 : -1
32) C=CCN1CC[C@]23c4c5ccc(O)c4O[C@H]2/C(=N/NC(=O)c2ccccc2)CC[C@@]3(O)[C@H]1C5 : -1
33) C[C@@H]1O[C@@H](O[C@H]2C[C@@H](O)[C@]3(CO)[C@@H]4C(CC[C@]3(O)C2)[C@@]2(O)CC[C@H]([C@@H]3COC(=O)C3)[C@@]2(C)C[C@H]4O)[C@H](O)[C@H](O)[C@H]1O (stereo not given in full) : -1
34) C[C@]12Cc3cn4c(nc3C=C1CCC1C2CC[C@@]2(C)[C@H]1CC[C@@]2(O)C#N)nc1ccccc14 (stereo not given in full) : -1
35) C[C@H](N)Cc1cccc(C(F)(F)F)c1 : -1
36) Cc1sc2ccccc2c1CC1=NCCN1 : 1
37) Oc1ccc2c3c1O[C@H]1c4oc5ccccc5c4C[C@@]4(O)C(C2)N(CC2CC2)CCC314 (stereo not given in full) : -1
38) NC(N)=NOCC[C@H](N)C(=O)O : -1
39) COc1ccc2[nH]c3c(c2c1)CCNC3 : -1
40) NC(N)=Nc1ccc2[nH]c3c(c2c1)C[C@@]1(O)[C@H]2Cc4ccc(O)c5c4[C@@]1(CCN2CC1CC1)[C@H]3O5 : -1

* * *

test: Cell Viability - LYMP2-025 (AID 976); settings: LYMP2-025 lymphoblastoid cell viability; series mostly up to 92.2 µM;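 also: cells exposed to compound for 24 h at 37 °C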
Inconclusive results are not listed. Activity calls are given as the source filed them. Calls come from the whole dose curve; as a rule, active = well fitted cell-killing curve with a large enough effect; inconclusive = small, poorly fitted or top-dose-only effect; inactive = flat fitted curve, though single readings scatter.
Possible outcomes: class 1 for active, class 0 for inactive

1) NNC(N)=O : class 0
2) CCCCCCCCOC(=O)c1ccccc1C(=O)OCCCCCCCC : class 0
3) O=C1CCO1 : class 0
4) COC1=CC(=O)O[C@@H](/C=C/c2ccccc2)C1 : class 0
5) [O]=[Cd] : class 0
6) C[C@]12CCC(=O)C[C@@H]1CC[C@@H]1[C@@H]2CC[C@]2(C)[C@@H](O)CC[C@@H]12 : class 0
7) Oc1cc(Cl)c(Cl)cc1Cl : class 0
8) O=C(O)C(Cl)(Cl)Cl : class 0
9) [Cl-].[Cl-].[Hg+2] : class 1
10) CCOC(=O)c1ccccc1C(=O)OCC : class 0

* * *

tested on: astro; assay: Drug repurposing screens with cells derived from glioblastoma tumor samples (AID 1345199); conditions: viability, ATP luminescence, 48 h; series mostly up to 45.9 µM; also: nearly all actives have a fitted effect of over 40% in size
Records with an inconclusive call do not appear. Activity calls are given as the source filed them. The call rests on the fitted dose curve; in most records, active means well fitted inhibition curve with a large enough effect; inconclusive means small, poorly fitted or top-dose-only effect; inactive means flat fitted curve, though single readings scatter.
Possible outcomes: active, inactive

1) CCC(=O)O[C@@](Cc1ccccc1)(c1ccccc1)[C@@H](C)CN(C)C : inactive
2) NCC[C@H](O)C(=O)N[C@@H]1C[C@H](N)[C@@H](O[C@H]2O[C@H](CN)[C@@H](O)[C@H](O)[C@H]2N)[C@H](O[C@@H]2O[C@H](CO)[C@@H](O)[C@H]2O)[C@H]1O : inactive
3) CCNC(C)Cc1cccc(C(F)(F)F)c1 (stereo not drawn) : inactive
4) COc1cc2c(cc1OC)[C@@]13CCN4CC5=CCO[C@H]6CC(=O)N2[C@H]1[C@H]6[C@H]5C[C@H]43 : inactive
5) O=c1c2ccccc2[se]n1-c1ccccc1 : active
6) O=C1CCCCC1CN1CCCCC1 (stereo not drawn) : inactive
7) N#CN : inactive
8) CCC/C=C/C=C/C(=O)O[C@H]1/C(=C/C(=O)OC)C[C@H]2C[C@H]([C@@H](C)O)OC(=O)C[C@H](O)C[C@@H]3C[C@H](OC(C)=O)C(C)(C)[C@](O)(C[C@@H]4C/C(=C/C(=O)OC)C[C@H](/C=C/C(C)(C)[C@]1(O)O2)O4)O3 : inactive
9) CNC(=O)Oc1ccccc1C(=O)Nc1ccccc1 : active
10) COc1ccc(OC)c([C@@H](O)[C@H](C)N)c1 : inactive
11) [S]=[Sb](=[S])[S][Sb](=[S])=[S] : inactive
12) C[C@@H]([C@H](O)c1ccccc1)N(C)C : inactive
13) O=c1[nH]c(=O)n(Cl)c(=O)n1Cl : inactive

* * *

tested on: Zika virus NS2B-NS3 protease (unlinked); assay: Optimization of GU AMC qHTS for Zika virus inhibitors: Unlinked NS2B-NS3 protease assay (AID 1347151); conditions: recombinant ZIKV NS2B-NS3 protease, fluorogenic AMC substrate; series mostly up to 52.5 µM; also: nearly all actives have a fitted effect of over 80% in size
Results filed as inconclusive are left out. Activity calls are given as the source filed them. Calls follow the shape of the dose curve; as a rule, active = well fitted inhibition curve with a large enough effect; inconclusive = small, poorly fitted or top-dose-only effect; inactive = no such curve, though single readings can be large or run the other way.
Possible outcomes: true (1) (active), false (0) (inactive)

1. Cc1[nH]c2ccc(O)cc2c1CCN : false (0)
2. N[C@@]1(C(=O)O)CC[C@@H](C(=O)O)C1 : false (0)
3. CN(C(=O)Cc1ccc(Cl)c(Cl)c1)C(CN1CCCC1)c1cccc(OCC(=O)O)c1 (stereo unspecified) : false (0)
4. NC(CCCCCP(=O)(O)O)C(=O)O (stereo unspecified) : false (0)
5. O=C1CC[C@@]2(O)C3Cc4ccc(O)c5c4C2(CCN3CC2CC2)[C@H]1O5 (stereo partly specified) : false (0)
6. O=c1ccc2[nH]cc(C3=CCNCC3)c2[nH]1 : true (1)
7. COc1ccc2c(c1)C13CCCCC1C(C2)N(C)CC3 (stereo unspecified) : false (0)
8. c1ccc2c(N3CCNCC3)cccc2c1 : true (1)
9. C[C@H](Cc1ccc2c(c1)OC(C(=O)O)(C(=O)O)O2)NC[C@H](O)c1cccc(Cl)c1 : false (0)
10. C[N+]1(C)C2CCC1CC(OC(=O)c1c[nH]c3ccccc13)C2 (stereo unspecified) : false (0)
11. NC(N)=Nc1ccc2[nH]c3c(c2c1)C[C@@]1(O)[C@H]2Cc4ccc(O)c5c4[C@@]1(CCN2CC1CC1)[C@H]3O5 : false (0)
